- assay target: Histone deacetylase 8 (Homo sapiens, UniProt Q9BY41)
- Sequence (Q9BY41 whole entry, the tested form may be a part): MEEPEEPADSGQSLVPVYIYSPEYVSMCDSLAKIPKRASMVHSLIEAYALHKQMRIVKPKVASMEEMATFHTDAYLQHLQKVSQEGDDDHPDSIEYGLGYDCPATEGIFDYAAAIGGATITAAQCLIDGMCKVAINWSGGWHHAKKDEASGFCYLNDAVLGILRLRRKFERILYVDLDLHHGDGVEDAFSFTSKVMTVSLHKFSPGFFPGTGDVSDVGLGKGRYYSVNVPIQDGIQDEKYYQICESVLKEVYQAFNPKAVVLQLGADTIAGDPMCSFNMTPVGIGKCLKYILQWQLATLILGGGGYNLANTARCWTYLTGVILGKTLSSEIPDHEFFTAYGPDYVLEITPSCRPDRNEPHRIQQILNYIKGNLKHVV
- assay name: Inhibition of purified recombinant human HDAC8 assessed as inhibition constant using residues 379-382 (RHKK(Ac)AMC) fluorogenic substrate p53 fluorogenic peptide as substrate measured after 90 mins by fluorescence assay
attribute measured: Ki (µM)
Report the value in µM with no unit label.

Specify Ki for CN1C(=O)N2Cc3c(c4cc(OCCN5CCOCC5)ccc4n3Cc3ccc(C(=O)NO)cc3)C(C3CCCCC3)(C2)C1=O (racemic) and stop.
1.09
